Below, each entry is listed with its recorded Activity.
System: Leishmania donovani
Test: Antileishmanial activity against Leishmania donovani MHOM/IN/1983/AG83 promastigotes infected BALB/c mouse assessed as spleen weight at 12.5 mg/kg, ip administered two times per week for 4 weeks
Format: functional
Settings: route intraperitoneal
# do not omit the unit; it follows the number

Example entries and their recorded answers appear below.
Field Activity (entry Cc1ccc2cccc(OCCCCCOc3cccc4ccc(C)nc34)c2n1 ) reads 135 mg

Activity reported for this compound c1cnc2c(OCOc3cccc4cccnc34)cccc2c1 : 110 mg

// sample Cc1ccc2cccc(OCOc3cccc4ccc(C)nc34)c2n1 , its Activity was 232 mg

Activity reported for this compound Clc1ccc(OCOc2ccc(Cl)c3cccnc23)c2ncccc12 : 90 mg

Proceed to the following item.
For this compound ( Cc1ccc2cccc(OCCCCOc3cccc4ccc(C)nc34)c2n1 ), measured Activity is 190 mg
